tgt: mouse TAAR1 (Mus musculus (Mouse))
Sequence (Q923Y8 whole entry): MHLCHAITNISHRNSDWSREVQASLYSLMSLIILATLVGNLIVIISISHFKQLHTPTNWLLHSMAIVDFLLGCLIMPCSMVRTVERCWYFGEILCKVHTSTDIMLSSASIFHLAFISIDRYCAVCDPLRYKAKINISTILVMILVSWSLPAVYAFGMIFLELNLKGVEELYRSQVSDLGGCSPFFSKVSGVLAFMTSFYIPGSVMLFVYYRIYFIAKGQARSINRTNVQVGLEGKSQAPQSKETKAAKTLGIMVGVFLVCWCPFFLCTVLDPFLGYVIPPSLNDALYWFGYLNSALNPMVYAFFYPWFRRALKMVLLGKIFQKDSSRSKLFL
assay-comment: Radioligand binding assay on mouse TAAR1
Where a name gives a salt, the structure may show the parent alone.
Catalogue of compounds with associated Ki
readout-type: Ki (nM)

[[record]]
compound = "CN(C(=O)Oc1ccccc1)c1ccc(C2CCNC2)cc1 (racemic) [Example 22]"
quantitative_result = 526

[[record]]
compound = "O=C(Nc1ccc(C2CCNC2)cc1)Oc1ccc(F)cc1 (racemic) [Example 15, hydrochloride]"
quantitative_result = 2.1

[[record]]
compound = "O=C(Nc1ccc(C(=O)C2CCNC2)cc1)c1ccc(Cl)cc1 (racemic) [Example 136, hydrochloride]"
quantitative_result = 153

[[record]]
compound = "O=C(Nc1ccc(C2CCNC2)cc1)Oc1ccc(Cl)cc1 (racemic) [Example 23, hydrochloride]"
quantitative_result = 2.2

[[record]]
compound = "O=C(Nc1ccc(C2CCNC2)cc1)Oc1ccccc1 (racemic) [Example 11, hydrochloride]"
quantitative_result = 6.5


Data origin, for the record: patent US9452980B2
